Biological target: AtPPO1 Y361D V365L (SEQ ID NO.135) (Arabidopsis thaliana, UniProt P55826, V365L/Y361D)
Construct: made in house; host or cells: E. coli BL21 (DE3) hemG, crude extract
Sequence (P55826 35-537 Y361D/V365L): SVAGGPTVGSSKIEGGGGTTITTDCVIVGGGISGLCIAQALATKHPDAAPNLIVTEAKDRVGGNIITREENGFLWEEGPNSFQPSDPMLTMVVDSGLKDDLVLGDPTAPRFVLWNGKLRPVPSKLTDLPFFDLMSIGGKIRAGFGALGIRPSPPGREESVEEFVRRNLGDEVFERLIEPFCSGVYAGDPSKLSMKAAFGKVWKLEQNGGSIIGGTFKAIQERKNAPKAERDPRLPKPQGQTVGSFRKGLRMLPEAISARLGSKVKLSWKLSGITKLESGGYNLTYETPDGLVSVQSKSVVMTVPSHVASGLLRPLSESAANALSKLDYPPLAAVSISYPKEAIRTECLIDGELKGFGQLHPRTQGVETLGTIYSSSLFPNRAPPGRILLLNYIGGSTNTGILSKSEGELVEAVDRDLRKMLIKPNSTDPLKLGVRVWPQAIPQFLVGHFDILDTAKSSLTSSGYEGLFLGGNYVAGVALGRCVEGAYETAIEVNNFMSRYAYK
Experiment: fluorescent Protoporphyrinogen Oxidase assay, crude extract
Assay type: biochemical
Details: read-out: percentage inhibition
Result type: inhibition at 1 ppm
Param answer (str): number followed by unit.

Molecule	inhibition at 1 ppm
CCOC(=O)C1(C)CC(c2cc(-n3c(=O)cc(C(F)(F)F)n(C)c3=O)c(F)cc2Cl)=NO1 (centres unmarked) [Herbicide C]	84%

# return inhibition at 1 ppm for each item in the list
1. CCOC(=O)[C@]1(C)CC(c2cc(-n3c(=O)n(C)c(=S)n(C)c3=O)c(F)cc2Cl)=NO1 [Herbicide D]
2. CCOC(=O)COc1ncccc1Oc1cc(-n2c(=O)cc(C(F)(F)F)n(C)c2=O)c(F)cc1Cl [Herbicide A, epyrifenacil]
3. C#CCN1C(=O)C(F)(F)Oc2cc(F)c(-n3c(=O)n(C)c(=S)n(C)c3=O)cc21 [Herbicide B, trifludimoxazin]
4. CC(C)N(C)S(=O)(=O)NC(=O)c1cc(-n2c(=O)cc(C(F)(F)F)n(C)c2=O)c(F)cc1Cl [Herbicide E, saflufenacil]

Response:
["63%", "89%", "100%", "31%"]

---

Target: AtPPO1 S305L Y426V (SEQ ID NO.125) (Arabidopsis thaliana, UniProt P55826, S305L/Y426V)
Construct: made in house; host or cells: E. coli BL21 (DE3) hemG, crude extract
Sequence (P55826 35-537 S305L/Y426V): as the sequence (P55826 35-537 Y361D/V365L) above, with S271L, D327Y, L331V, Y392V counted along it
Assay: fluorescent Protoporphyrinogen Oxidase assay, crude extract
Format: biochemical
Details: read-out: percentage inhibition
Result type: inhibition at 0.1 ppm (%)
One number for each entry, in %.

Molecule	System tested	Assay result
C#CCN1C(=O)C(F)(F)Oc2cc(F)c(-n3c(=O)n(C)c(=S)n(C)c3=O)cc21 [Herbicide B, trifludimoxazin]	AtPPO1 S305L Y426V (SEQ ID NO.125) (Arabidopsis thaliana, UniProt P55826, S305L/Y426V)	87
CCOC(=O)C1(C)CC(c2cc(-n3c(=O)cc(C(F)(F)F)n(C)c3=O)c(F)cc2Cl)=NO1 (centres unmarked) [Herbicide C]	AtPPO1 S305L Y426V (SEQ ID NO.125) (Arabidopsis thaliana, UniProt P55826, S305L/Y426V)	0
CC(C)N(C)S(=O)(=O)NC(=O)c1cc(-n2c(=O)cc(C(F)(F)F)n(C)c2=O)c(F)cc1Cl [Herbicide E, saflufenacil]	AtPPO1 S305L Y426V (SEQ ID NO.125) (Arabidopsis thaliana, UniProt P55826, S305L/Y426V)	0
CCOC(=O)[C@]1(C)CC(c2cc(-n3c(=O)n(C)c(=S)n(C)c3=O)c(F)cc2Cl)=NO1 [Herbicide D]	AtPPO1 S305L Y426V (SEQ ID NO.125) (Arabidopsis thaliana, UniProt P55826, S305L/Y426V)	0

Query: # inhibition at 0.1 ppm lookup, item CCOC(=O)COc1ncccc1Oc1cc(-n2c(=O)cc(C(F)(F)F)n(C)c2=O)c(F)cc1Cl [Herbicide A, epyrifenacil]
Response: 0

---

I'd be grateful if you could share measured log10 IC50 for these entries.
Target: His-TEV-AtPP01 ΔcTP (SEQ ID NO: 370) (Arabidopsis thaliana)
Construct: with cTPs removed; made in house; host or cells: E. coli BL21 (DE3), His GraviTrap, partially purified
Sequence (P55826 with tags, fused parts or gaps): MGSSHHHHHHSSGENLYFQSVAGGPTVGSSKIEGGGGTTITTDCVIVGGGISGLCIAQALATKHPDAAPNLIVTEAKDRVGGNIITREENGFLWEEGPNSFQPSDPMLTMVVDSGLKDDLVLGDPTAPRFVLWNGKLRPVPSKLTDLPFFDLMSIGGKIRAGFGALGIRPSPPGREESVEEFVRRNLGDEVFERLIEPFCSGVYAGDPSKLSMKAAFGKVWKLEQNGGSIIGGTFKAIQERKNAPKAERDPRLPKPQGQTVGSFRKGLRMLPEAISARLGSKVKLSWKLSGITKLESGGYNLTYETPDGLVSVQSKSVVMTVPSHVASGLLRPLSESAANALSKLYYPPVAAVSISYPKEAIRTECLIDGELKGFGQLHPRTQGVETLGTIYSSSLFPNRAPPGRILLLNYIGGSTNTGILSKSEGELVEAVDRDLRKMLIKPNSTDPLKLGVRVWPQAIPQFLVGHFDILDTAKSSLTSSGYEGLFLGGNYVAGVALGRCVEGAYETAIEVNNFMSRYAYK
Test: PPO fluorescence IC50 assay, partially purified enzyme
Assay type: biochemical
Friendly reminder: values = log10 of IC50, unit pM.

Example molecules with recorded log10 IC50:
Molecule	Assay result
CCOC(=O)COc1ncccc1Oc1cc(-n2c(=O)cc(C(F)(F)F)n(C)c2=O)c(F)cc1Cl [Herbicide A, epyrifenacil]	2.85
CC(C)Oc1cc(-n2nc(C(C)(C)C)oc2=O)c(Cl)cc1Cl [Oxadiazaon]	4.28
CCOC(=O)C1(C)CC(c2cc(-n3c(=O)cc(C(F)(F)F)n(C)c3=O)c(F)cc2Cl)=NO1 (centres unmarked) [Herbicide C]	2.85
CS(=O)(=O)NC(=O)c1cc(Oc2ccc(C(F)(F)F)cc2Cl)ccc1[N+](=O)[O-] [Fomesafen, fomesafen]	3.26
C#CCN1C(=O)C(F)(F)Oc2cc(F)c(-n3c(=O)n(C)c(=S)n(C)c3=O)cc21 [Herbicide B, trifludimoxazin]	2.85
CC(C)N(C)S(=O)(=O)NC(=O)c1cc(-n2c(=O)cc(C(F)(F)F)n(C)c2=O)c(F)cc1Cl [Herbicide E, saflufenacil]	3.32
C#CCN(C)c1c(C#N)cnn1-c1nn2c(c1Cl)CCCC2 [Pyraclonil]	3.40
CCOC(=O)COc1cc(-c2nn(C)c(OC(F)F)c2Cl)c(F)cc1Cl [Pyraflufen-ethyl, pyraflufen-ethyl]	2.78

# return log10 IC50 for each item in the list
1. C=CCOC(=O)C(C)(C)OC(=O)c1cc(-n2c(=O)cc(C(F)(F)F)n(C)c2=O)ccc1Cl [Butafenacil, butafenacil]
2. C#CCOc1cc(-n2nc3n(c2=O)CCCC3)c(Cl)cc1Cl [Azafenadin]
3. C#CCN1C(=O)COc2cc(F)c(N3C(=O)C4=C(CCCC4)C3=O)cc21 [Flumioxazin, flumioxazin]

Response:
1: 2.78; 2: 2.90; 3: 2.90

---

Biological target: AtPPO1 S305L Y361T V365L T431R L479M (SEQ ID NO.130) (Arabidopsis thaliana, UniProt P55826, L479M/S305L/T431R/V365L/Y361T)
Construct: made in house; host or cells: E. coli BL21 (DE3) hemG, crude extract
Sequence (P55826 35-537 S305L/Y361T/V365L/T431R/L479M): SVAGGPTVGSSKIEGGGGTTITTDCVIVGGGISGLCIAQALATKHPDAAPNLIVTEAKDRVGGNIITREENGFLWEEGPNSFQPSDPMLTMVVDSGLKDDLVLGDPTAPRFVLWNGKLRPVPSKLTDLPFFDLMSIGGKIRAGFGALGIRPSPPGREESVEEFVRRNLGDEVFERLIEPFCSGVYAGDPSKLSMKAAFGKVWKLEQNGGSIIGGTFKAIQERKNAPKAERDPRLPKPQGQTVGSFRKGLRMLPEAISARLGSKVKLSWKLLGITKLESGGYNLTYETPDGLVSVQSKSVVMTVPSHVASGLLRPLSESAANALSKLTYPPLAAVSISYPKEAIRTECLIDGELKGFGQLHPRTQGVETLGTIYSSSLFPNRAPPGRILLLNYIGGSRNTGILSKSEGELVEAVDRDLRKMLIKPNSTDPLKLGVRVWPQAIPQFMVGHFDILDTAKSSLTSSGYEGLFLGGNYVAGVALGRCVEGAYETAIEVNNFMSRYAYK
Test: fluorescent Protoporphyrinogen Oxidase assay, crude extract
Type: biochemical
Conditions: read-out: percentage inhibition
Could you label it fulfilled if measured inhibition at 1 ppm is 70% or higher, and not fulfilled otherwise?

Study these solved cases before continuing.
Compound	Discrete label
CCOC(=O)C1(C)CC(c2cc(-n3c(=O)cc(C(F)(F)F)n(C)c3=O)c(F)cc2Cl)=NO1 (centres unmarked) [Herbicide C]	fulfilled
C#CCN1C(=O)C(F)(F)Oc2cc(F)c(-n3c(=O)n(C)c(=S)n(C)c3=O)cc21 [Herbicide B, trifludimoxazin]	fulfilled

Query: Please tell me: is the compound CCOC(=O)[C@]1(C)CC(c2cc(-n3c(=O)n(C)c(=S)n(C)c3=O)c(F)cc2Cl)=NO1 [Herbicide D] at or over 70% in terms of inhibition at 1 ppm?
Response: not fulfilled

Query: Also check CC(C)N(C)S(=O)(=O)NC(=O)c1cc(-n2c(=O)cc(C(F)(F)F)n(C)c2=O)c(F)cc1Cl [Herbicide E, saflufenacil]
Response: not fulfilled

---

I'd be grateful if you could share measured pIC50 for these entries.
Molecular target: His-TEV-AtPP01 ΔcTP L479N (SEQ ID NO: 372) (Arabidopsis thaliana, UniProt P55826, L479N)
Construct: with cTPs removed; made in house; host or cells: E. coli BL21 (DE3), His GraviTrap, partially purified
Sequence (P55826 with tags, fused parts or gaps L479N): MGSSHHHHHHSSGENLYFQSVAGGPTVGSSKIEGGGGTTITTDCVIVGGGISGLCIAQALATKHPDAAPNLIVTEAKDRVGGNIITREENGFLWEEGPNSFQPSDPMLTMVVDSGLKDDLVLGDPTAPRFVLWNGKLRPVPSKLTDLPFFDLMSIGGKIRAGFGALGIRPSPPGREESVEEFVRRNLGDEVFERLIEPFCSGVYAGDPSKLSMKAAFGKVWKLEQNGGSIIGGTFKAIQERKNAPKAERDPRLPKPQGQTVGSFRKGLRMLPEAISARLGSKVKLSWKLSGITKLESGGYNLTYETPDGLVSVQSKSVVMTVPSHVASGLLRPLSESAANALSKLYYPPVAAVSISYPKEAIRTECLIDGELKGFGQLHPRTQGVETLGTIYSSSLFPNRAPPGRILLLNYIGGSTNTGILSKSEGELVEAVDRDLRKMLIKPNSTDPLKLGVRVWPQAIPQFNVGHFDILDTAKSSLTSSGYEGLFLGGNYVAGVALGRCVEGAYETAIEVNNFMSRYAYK
Test: PPO fluorescence IC50 assay, partially purified enzyme
Type: biochemical
Experimental: A pET24 plasmid containing a DNA sequence encoding variants of AtPPO1 derived from Arabidopsis thaliana with cTPs removed and both a 6×His tag and TEV protease cleavage tag added at the N-terminus, codon-optimised for expression in E. coli, and under control of a T7 promoter, was synthesised by Twist Bioscience. […] Protein concentration was measured and calculated using the absorbance at 280 nm. Extracts were diluted 1 in 4 and 10 uL was analysed by SDS PAGE. […]
Numbers only, as −log10 of the molar value.

Example compounds with recorded pIC50:
Compound	System tested	pIC50
C#CCN1C(=O)COc2cc(F)c(N3C(=O)C4=C(CCCC4)C3=O)cc21 [Flumioxazin, flumioxazin]	His-TEV-AtPP01 ΔcTP L479N (SEQ ID NO: 372) (Arabidopsis thaliana, UniProt P55826, L479N)	9.00
CCOC(=O)COc1cc(-c2nn(C)c(OC(F)F)c2Cl)c(F)cc1Cl [Pyraflufen-ethyl, pyraflufen-ethyl]	His-TEV-AtPP01 ΔcTP L479N (SEQ ID NO: 372) (Arabidopsis thaliana, UniProt P55826, L479N)	9.10
CCOC(=O)C1(C)CC(c2cc(-n3c(=O)cc(C(F)(F)F)n(C)c3=O)c(F)cc2Cl)=NO1 (stereo not shown) [Herbicide C]	His-TEV-AtPP01 ΔcTP L479N (SEQ ID NO: 372) (Arabidopsis thaliana, UniProt P55826, L479N)	9.05

Query: Please provide the recorded pIC50 for CC(C)N(C)S(=O)(=O)NC(=O)c1cc(-n2c(=O)cc(C(F)(F)F)n(C)c2=O)c(F)cc1Cl [Herbicide E, saflufenacil] , tested on His-TEV-AtPP01 ΔcTP L479N (SEQ ID NO: 372) (Arabidopsis thaliana, UniProt P55826, L479N).
Response: 8.59
